Reference source for all entries: patent US5314999A

Listing: CC50 of selected compounds
test system: DAUDI (human lymphoma B); experiment: Toxicity on nucleated cells, DAUDI human lymphoma B; assay type: cell-based; settings: 1 hour 30, trypan blue, 90 min, read-out: LD 50 (concentration leading to a mortality of 50%)
measured_attribute: CC50

{"columns": ["compound", "measured_attribute", "result"],
 "data": [
  ["CC1OC[C@@H](O)[C@H]([C@H](O)C(=O)CN[C@@H]2[C@H](O)[C@H](O[C@H]3/C=C/C=C/C=C/C=C/C=C/C=C/C=C/[C@H](C)[C@@H](O)[C@@H](C)[C@H](C)OC(=O)C[C@H](O)C[C@H](O)CC[C@@H](O)[C@H](O)C[C@H](O)C[C@]4(O)C[C@H](O)[C@@H](C(=O)O)[C@H](C3)O4)O[C@H](C)[C@H]2O)O1 (stereo partly drawn)", "CC50", "700 µM"],
  ["C[C@@H]1[C@H](O)[C@@H](C)/C=C/C=C/C=C/C=C/C=C/C=C/C=C/[C@H](O[C@@H]2O[C@H](C)[C@@H](O)[C@H](NCC3(O)O[C@H](C(=O)O)[C@@H](O)[C@@H]3O)[C@@H]2O)C[C@@H]2O[C@](O)(C[C@@H](O)C[C@@H](O)[C@H](O)CC[C@@H](O)C[C@@H](O)CC(=O)O[C@H]1C)C[C@H](O)[C@H]2C(=O)O (stereo partly drawn) [AmB 17 F, 1-amino-1-deoxy-D-arabinoglucuronyl-AmB]", "CC50", "> 1000 µM"],
  ["CC(=O)NC[C@H]1OC(O)(CN[C@@H]2[C@H](O)[C@H](O[C@H]3/C=C/C=C/C=C/C=C/C=C/C=C/C=C/[C@H](C)[C@@H](O)[C@@H](C)[C@H](C)OC(=O)C[C@H](O)C[C@H](O)CC[C@@H](O)[C@H](O)C[C@H](O)C[C@]4(O)C[C@H](O)[C@@H](C(=O)O)[C@H](C3)O4)O[C@H](C)[C@H]2O)[C@@H](O)[C@@H]1O (stereo partly drawn) [AmB 23 F]", "CC50", "> 1000 µM"]
]}

====

system: red corpuscles; experiment: Toxicity on red corpuscles (lysis), mice; type: cell-based; details: 37° C., 1 hour 30, 90 min, 90 min, read-out: LD 50 (dose which leads to lysis in 50% of the erythrocytes)
Let's look at some compounds and their measured HC50.

{"columns": ["compound", "units_label", "HC50"],
 "data": [
  ["C[C@@H]1[C@H](O)[C@@H](C)/C=C/C=C/C=C/C=C/C=C/C=C/C=C/[C@H](O[C@@H]2O[C@H](C)[C@@H](O)[C@H](NCC3(O)O[C@H](C(=O)O)[C@@H](O)[C@@H]3O)[C@@H]2O)C[C@@H]2O[C@](O)(C[C@@H](O)C[C@@H](O)[C@H](O)CC[C@@H](O)C[C@@H](O)CC(=O)O[C@H]1C)C[C@H](O)[C@H]2C(=O)O (stereo partly drawn) [AmB 17 F, 1-amino-1-deoxy-D-arabinoglucuronyl-AmB]", "µM", 30],
  ["C[C@@H]1[C@H](O)[C@@H](C)/C=C/C=C/C=C/C=C/C=C/C=C/C=C/[C@H](O[C@@H]2O[C@H](C)[C@@H](O)[C@H](NCC(=O)[C@@H](O)[C@@H]3OC(c4ccccc4)OC[C@H]3O)[C@@H]2O)C[C@@H]2O[C@](O)(C[C@@H](O)C[C@@H](O)[C@H](O)CC[C@@H](O)C[C@@H](O)CC(=O)O[C@H]1C)C[C@H](O)[C@H]2C(=O)O (stereo partly shown) [AmB 20 F]", "µM", 120],
  ["CC(=O)NC[C@H]1OC(O)(CN[C@@H]2[C@H](O)[C@H](O[C@H]3/C=C/C=C/C=C/C=C/C=C/C=C/C=C/[C@H](C)[C@@H](O)[C@@H](C)[C@H](C)OC(=O)C[C@H](O)C[C@H](O)CC[C@@H](O)[C@H](O)C[C@H](O)C[C@]4(O)C[C@H](O)[C@@H](C(=O)O)[C@H](C3)O4)O[C@H](C)[C@H]2O)[C@@H](O)[C@@H]1O (stereo partly shown) [AmB 23 F]", "µM", 12],
  ["C[C@@H]1[C@H](O)[C@@H](C)/C=C/C=C/C=C/C=C/C=C/C=C/C=C/[C@H](O[C@@H]2O[C@H](C)[C@@H](O)[C@H](NCC(=O)[C@@H](O)[C@@H]3OC(c4ccccc4)OC[C@H]3O)[C@@H]2O)C[C@@H]2O[C@](O)(C[C@@H](O)C[C@@H](O)[C@H](O)CC[C@@H](O)C[C@@H](O)CC(=O)O[C@H]1C)C[C@H](O)[C@H]2C(=O)O (stereo partly shown) [AmB 20 G]", "µM", 4]
]}
